The reported numbers originate from patent US20120264685A1.

- target_of_assay: human glucagon receptor (human, UniProt P47871 26-477)
- Sequence (P47871 26-477): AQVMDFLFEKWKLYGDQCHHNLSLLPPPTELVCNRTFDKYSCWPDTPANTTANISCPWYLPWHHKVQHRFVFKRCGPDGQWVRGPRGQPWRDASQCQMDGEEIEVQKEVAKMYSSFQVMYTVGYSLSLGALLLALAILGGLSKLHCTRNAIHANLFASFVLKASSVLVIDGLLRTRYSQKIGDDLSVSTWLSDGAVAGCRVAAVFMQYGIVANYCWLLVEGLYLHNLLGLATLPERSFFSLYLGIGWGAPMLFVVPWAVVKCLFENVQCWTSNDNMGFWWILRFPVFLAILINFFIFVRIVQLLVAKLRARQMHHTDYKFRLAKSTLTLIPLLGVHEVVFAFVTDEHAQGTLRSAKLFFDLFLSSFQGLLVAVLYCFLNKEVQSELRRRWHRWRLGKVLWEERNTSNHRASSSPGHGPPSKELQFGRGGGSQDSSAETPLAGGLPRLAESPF
- assay_comment: cell-based or functional assay
Where no end group is shown, it is not given here. [ ]: non-standard residue; d: D form. αMePhe(2,6-F2) = C[C@](N)(Cc1c(F)cccc1F)C(=O)O; αMePhe(2-F) = C[C@](N)(Cc1ccccc1F)C(=O)O; αMeBip(OMe) = alpha-methylated Bip(OMe); hhPhe = N[C@@H](CCCc1ccccc1)C(=O)O; αMeAPPA = not defined here; αMeS = C[C@](N)(CO)C(=O)O; Aib = CC(C)(N)C(=O)O
measurement_label: cAMP production (pmol/ml/µg prt) with saturated glucagon peptide, at 10 µM

Solved entries (count: 3):
{"columns": ["binder", "observed_value"],
 "data": [
  ["VHSQGT[αMePhe(2-F)]TSD[αMeBip(OMe)][hhPhe] (not fully specified (C-terminus); printed as VHSQGT-(αMe-2FPhe)-TSD-(αMe-Bip(OMe))-(APPA)) [Seq. ID. No. 17]", "0 pmol/ml/µg prt"],
  ["VH[Aib]EGTFT[αMeS]D[αMeBip(OMe)][αMeAPPA] (not fully specified (C-terminus); printed as VH-Aib-EGTFT-(αMe-Ser)-D-(αMe-Bip(OMe))-(αMe-APPA); reading uncertain) [Seq. ID. No. 163]", "2 pmol/ml/µg prt"],
  ["VH[Aib]QGT[αMePhe(2-F)]TSD[αMeBip(OMe)][hhPhe] (not fully specified (C-terminus); printed as VH-Aib-QGT-(αMe-2FPhe)-TSD-(αMe-Bip(OMe))-(APPA)) [Seq. ID. No. 19]", "2 pmol/ml/µg prt"]
]}

# next binder below
Data request: Which measured cAMP production (pmol/ml/µg prt) with saturated glucagon peptide, at 10 µM value corresponds to VVH[Aib]EGT[αMePhe(2,6-F2)]TSD[αMeBip(OMe)][hhPhe]-NH2 [Seq. ID. No. 227] ?
Data returned: 12 pmol/ml/µg prt
